Biological target: recombinant soluble homotrimeric HA of A/duck/Yangzhou/02/05 (H8N4) (Influenza A virus A/duck/Yangzhou/02/2005(H8N4))
Assay: HA microarray, BCC supernatant
Conditions: remark: other sources report otherwise
measurement-name: Trimeric HA Binding: RLU (RLU)
Write it as a number; the unit RLU goes unstated.

{"columns": ["binder", "measurement-units", "val"],
 "data": [
  ["TCN-538 (3206_O17) (antibody, V domains shown) VH: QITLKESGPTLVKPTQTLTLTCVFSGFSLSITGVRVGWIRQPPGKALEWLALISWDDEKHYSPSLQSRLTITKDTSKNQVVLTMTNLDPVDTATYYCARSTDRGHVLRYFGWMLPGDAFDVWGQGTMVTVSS VL: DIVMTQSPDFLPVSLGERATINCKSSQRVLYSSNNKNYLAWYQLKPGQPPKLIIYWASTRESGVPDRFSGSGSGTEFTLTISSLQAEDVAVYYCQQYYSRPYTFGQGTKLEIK", "RLU", 6120],
  ["TCN-527 (5086_C06) (antibody, V domains shown) VH: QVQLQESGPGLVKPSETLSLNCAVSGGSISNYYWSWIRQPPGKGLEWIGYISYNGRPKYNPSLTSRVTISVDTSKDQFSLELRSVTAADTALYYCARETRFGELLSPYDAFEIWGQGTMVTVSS VL: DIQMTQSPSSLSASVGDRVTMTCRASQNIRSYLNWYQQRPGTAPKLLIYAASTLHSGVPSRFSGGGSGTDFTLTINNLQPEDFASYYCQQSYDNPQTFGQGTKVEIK", "RLU", 28800],
  ["TCN-555 (5246_L16) (antibody, V domains shown) VH: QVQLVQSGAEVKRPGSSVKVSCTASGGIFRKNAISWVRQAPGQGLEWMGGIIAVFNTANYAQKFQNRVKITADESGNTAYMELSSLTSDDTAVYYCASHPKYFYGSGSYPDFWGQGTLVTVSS VL: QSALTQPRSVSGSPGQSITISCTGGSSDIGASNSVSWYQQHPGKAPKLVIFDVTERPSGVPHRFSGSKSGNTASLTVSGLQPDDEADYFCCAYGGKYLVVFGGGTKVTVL", "RLU", 18400]
]}

// moving on: another record for Trimeric HA Binding: RLU
-- ask What measured Trimeric HA Binding: RLU goes with TCN-532 (5262_H18) (antibody, V domains shown) VH: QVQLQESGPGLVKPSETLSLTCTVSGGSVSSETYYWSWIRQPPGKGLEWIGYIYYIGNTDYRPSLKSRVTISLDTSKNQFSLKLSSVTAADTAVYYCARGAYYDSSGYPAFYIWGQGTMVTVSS VL: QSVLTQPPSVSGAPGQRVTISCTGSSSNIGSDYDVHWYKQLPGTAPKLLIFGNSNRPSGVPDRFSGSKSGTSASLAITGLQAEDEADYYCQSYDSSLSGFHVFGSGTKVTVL ?
-- reply 785

These entries and their values trace back to patent US20150086555A1.
